target: CYP2E1 (Homo sapiens)
Sequence (P05181 whole entry): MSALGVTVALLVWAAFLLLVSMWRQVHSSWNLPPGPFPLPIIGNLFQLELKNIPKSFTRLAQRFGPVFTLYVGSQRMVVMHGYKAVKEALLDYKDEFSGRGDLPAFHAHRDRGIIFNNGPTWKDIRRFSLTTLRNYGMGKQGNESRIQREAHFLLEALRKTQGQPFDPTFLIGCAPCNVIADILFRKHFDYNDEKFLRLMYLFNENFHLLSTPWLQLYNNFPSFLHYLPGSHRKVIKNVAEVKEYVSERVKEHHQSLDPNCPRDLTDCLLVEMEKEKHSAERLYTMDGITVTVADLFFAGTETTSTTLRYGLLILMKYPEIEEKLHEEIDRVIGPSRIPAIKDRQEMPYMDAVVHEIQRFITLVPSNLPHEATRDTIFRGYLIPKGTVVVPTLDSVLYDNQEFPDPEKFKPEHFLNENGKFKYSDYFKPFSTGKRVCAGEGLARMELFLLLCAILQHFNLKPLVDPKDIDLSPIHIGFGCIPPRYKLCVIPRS
reported property: pIC50
Remember the convention: pIC50 equals -log10 of concentration in molar.

C[C@H](CC(=O)C[C@@H](C)[C@H]1C[C@H](O)[C@@]2(C)C3=C(C(=O)C[C@]12C)[C@@]1(C)CCC(=O)C(C)(C)[C@@H]1C[C@@H]3O)C(=O)O on CYP2E1 (Homo sapiens) gives pIC50 = 4.55

---

target: CYP3A4 (Homo sapiens, UniProt P08684)
Sequence (P08684 whole entry): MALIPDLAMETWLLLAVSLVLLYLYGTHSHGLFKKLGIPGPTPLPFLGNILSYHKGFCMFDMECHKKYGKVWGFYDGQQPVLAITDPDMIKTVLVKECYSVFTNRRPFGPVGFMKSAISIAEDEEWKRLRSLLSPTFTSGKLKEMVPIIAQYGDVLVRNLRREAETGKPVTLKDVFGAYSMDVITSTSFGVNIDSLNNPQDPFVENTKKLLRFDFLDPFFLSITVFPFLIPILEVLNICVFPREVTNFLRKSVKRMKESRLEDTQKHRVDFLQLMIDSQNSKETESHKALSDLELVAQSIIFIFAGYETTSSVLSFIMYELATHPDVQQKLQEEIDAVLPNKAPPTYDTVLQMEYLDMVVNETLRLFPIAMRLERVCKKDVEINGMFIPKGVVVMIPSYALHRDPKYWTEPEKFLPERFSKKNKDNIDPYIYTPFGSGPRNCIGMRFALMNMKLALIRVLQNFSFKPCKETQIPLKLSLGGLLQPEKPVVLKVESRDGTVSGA
reported property: pIC50
Schema: pIC50 number; meaning minus log10 of the concentration expressed in molar units.

Record C[C@H](CC(=O)C[C@@H](C)[C@H]1C[C@H](O)[C@@]2(C)C3=C(C(=O)C[C@]12C)[C@@]1(C)CCC(=O)C(C)(C)[C@@H]1C[C@@H]3O)C(=O)O has CYP3A4 (Homo sapiens, UniProt P08684) pIC50 equal to 4.82

---

molecular target: CYP2D6 (Homo sapiens, UniProt P10635)
Sequence (P10635 whole entry): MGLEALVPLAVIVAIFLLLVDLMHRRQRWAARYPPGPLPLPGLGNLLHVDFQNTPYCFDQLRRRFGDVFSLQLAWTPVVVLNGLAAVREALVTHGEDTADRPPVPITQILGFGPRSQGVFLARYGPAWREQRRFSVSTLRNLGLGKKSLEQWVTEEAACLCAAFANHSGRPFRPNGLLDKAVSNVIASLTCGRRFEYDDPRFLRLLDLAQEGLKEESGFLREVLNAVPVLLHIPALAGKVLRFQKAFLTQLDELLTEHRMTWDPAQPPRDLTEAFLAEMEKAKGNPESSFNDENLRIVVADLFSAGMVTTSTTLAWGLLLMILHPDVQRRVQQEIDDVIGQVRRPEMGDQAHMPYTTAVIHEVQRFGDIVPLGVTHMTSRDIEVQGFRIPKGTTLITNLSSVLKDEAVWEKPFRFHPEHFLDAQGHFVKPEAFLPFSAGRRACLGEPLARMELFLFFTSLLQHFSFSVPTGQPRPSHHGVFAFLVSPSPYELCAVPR
reported property: pIC50
pIC50 here: minus log base 10 of the concentration, concentration in moles per litre.

CYP2D6 (Homo sapiens, UniProt P10635) assay, compound C[C@H](CC(=O)C[C@@H](C)[C@H]1C[C@H](O)[C@@]2(C)C3=C(C(=O)C[C@]12C)[C@@]1(C)CCC(=O)C(C)(C)[C@@H]1C[C@@H]3O)C(=O)O , recorded pIC50 = 4.66

---

target: CYP2D6 (Homo sapiens)
reported property: Ki (µM)
Provide the reading as a plain figure in µM.

Input C[C@H](CC(=O)C[C@@H](C)[C@H]1C[C@H](O)[C@@]2(C)C3=C(C(=O)C[C@]12C)[C@@]1(C)CCC(=O)C(C)(C)[C@@H]1C[C@@H]3O)C(=O)O [GAA, Ganoderic acid A] . Output Ki: 10.1

---

target: CYP3A4 (Homo sapiens, UniProt P08684)
reported property: pKi
# pKi = -log10(concentration in molar units)

Short answer for C[C@H](CC(=O)C[C@@H](C)[C@H]1C[C@H](O)[C@@]2(C)C3=C(C(=O)C[C@]12C)[C@@]1(C)CCC(=O)C(C)(C)[C@@H]1C[C@@H]3O)C(=O)O : pKi was 5.15
